Entries annotated with measured cytotoxicity at 70.5 h
- test description: Human HepG2 cell viability assay in 384 well format
- Format: toxicity, cell-based
- Parameters: dose 125 nL, time 70.5 hour; concentration not given beside the values
- experimental conditions: HepG2 cells, read-out: Inhibition
Numeric answer only, unit % assumed.

molecule: CS(=O)(=O)NCC1CCCN(C(=O)c2cccc(F)c2)C1 (stereo unspecified)
experimental value: -6.44

molecule: Cc1occc1C(=O)Nc1ccc(C(=O)NC[C@H]2CCCN2)cc1
experimental value: 7

molecule: COCCNC(=O)[C@H]1CN(Cc2scnc2C)C[C@H]2OCC[C@@H]12
experimental value: -3.43

molecule: COc1ccc(CN(C)Cc2nc3c(cnn3C)c(=O)[nH]2)cc1OC
experimental value: -6.1

Request: Fill blank: measured cytotoxicity at 70.5 h of the molecule CCn1cnnc1C1CCN(C(=O)c2cccc(-n3cccc3)c2)CC1 is ____.
Response: -2.68

Request: Fill blank: measured cytotoxicity at 70.5 h of the molecule O=C(c1cc2c([nH]c1=O)CCC2)N1CCCCCC1c1ccncc1 (stereo unspecified) is ____.
Response: -6.24

Request: Fill blank: measured cytotoxicity at 70.5 h of the molecule CC(=O)N1CCCN(C(=O)NC(C)c2ccc(C)o2)CC1 (stereo unspecified) is ____.
Response: 1.15

Request: Fill blank: measured cytotoxicity at 70.5 h of the molecule CO[C@H]1CN(Cc2cc(Cn3cncn3)c(C)cc2C)CC[C@H]1N is ____.
Response: 6.57

Request: Fill blank: measured cytotoxicity at 70.5 h of the molecule CC(C(=O)NCc1ccc(N2CCCCCC2)nc1)S(C)(=O)=O (stereo unspecified) is ____.
Response: -9.13

Request: Fill blank: measured cytotoxicity at 70.5 h of the molecule CC(C)CCN1CCN(C(=O)c2ccc(=O)[nH]n2)CC1 is ____.
Response: -7.24

Request: Fill blank: measured cytotoxicity at 70.5 h of the molecule Clc1cccc(C(NCc2ncc[nH]2)c2ccccn2)c1 (stereo unspecified) is ____.
Response: 1.18

Request: Fill blank: measured cytotoxicity at 70.5 h of the molecule Cc1nc(C2CCCNC2)cc(N(Cc2nccn2C)C2CC2)n1 (stereo unspecified) is ____.
Response: 7.52

Request: Fill blank: measured cytotoxicity at 70.5 h of the molecule CCc1cnc(NC2CCc3c(ccc(=O)n3C)C2)nc1 (stereo unspecified) is ____.
Response: -5.8

Request: Fill blank: measured cytotoxicity at 70.5 h of the molecule CO[C@H]1CN(Cc2c(C)ccc3ncccc23)CC[C@H]1N is ____.
Response: 2.94

Request: Fill blank: measured cytotoxicity at 70.5 h of the molecule CCC(CC)(CNC(=O)OC(C)(C)C)NC(=O)C1CC1 is ____.
Response: 16.7

Request: Fill blank: measured cytotoxicity at 70.5 h of the molecule CC(=O)N1CCc2c(nc(N(C)C)nc2NC(C)Cc2cccs2)C1 (stereo unspecified) is ____.
Response: -6.58

Request: Fill blank: measured cytotoxicity at 70.5 h of the molecule Cc1nccc(CNC(=O)Nc2cc(C(F)(F)F)c[nH]c2=O)n1 is ____.
Response: -5.34

Request: Fill blank: measured cytotoxicity at 70.5 h of the molecule CN(CC(F)(F)F)C(=O)CNC(=O)N1CCCC(C(F)(F)F)C1 (stereo unspecified) is ____.
Response: -2.98

Request: Fill blank: measured cytotoxicity at 70.5 h of the molecule CC[C@H]1CN2CC[C@H]1C[C@@H]2CNC(=O)Nc1cc(OC)cc(OC)c1 is ____.
Response: 0.42

Request: Fill blank: measured cytotoxicity at 70.5 h of the molecule O=C(c1ccc2c(c1)OCO2)N1CCCSCC1CN1CCCC1 (stereo unspecified) is ____.
Response: 0.782

Request: Fill blank: measured cytotoxicity at 70.5 h of the molecule CN(C)CCCNC(=O)c1cc(Cl)ccc1Cl is ____.
Response: -14.5

Request: Fill blank: measured cytotoxicity at 70.5 h of the molecule Cc1noc(C)c1CN1CCC2(CC1)C(c1cnn(C)c1)CC(=O)N2C (stereo unspecified) is ____.
Response: -7.83

Request: Fill blank: measured cytotoxicity at 70.5 h of the molecule Cc1noc(C)c1CCC(=O)N1CCCC(n2ccnc2C)C1 (stereo unspecified) is ____.
Response: 3.81
